- Assay System: PRMT5/MEP50 protein complex (Homo sapiens (Human))
- Sequence (O14744 other isoform, or with tags, fused parts or gaps): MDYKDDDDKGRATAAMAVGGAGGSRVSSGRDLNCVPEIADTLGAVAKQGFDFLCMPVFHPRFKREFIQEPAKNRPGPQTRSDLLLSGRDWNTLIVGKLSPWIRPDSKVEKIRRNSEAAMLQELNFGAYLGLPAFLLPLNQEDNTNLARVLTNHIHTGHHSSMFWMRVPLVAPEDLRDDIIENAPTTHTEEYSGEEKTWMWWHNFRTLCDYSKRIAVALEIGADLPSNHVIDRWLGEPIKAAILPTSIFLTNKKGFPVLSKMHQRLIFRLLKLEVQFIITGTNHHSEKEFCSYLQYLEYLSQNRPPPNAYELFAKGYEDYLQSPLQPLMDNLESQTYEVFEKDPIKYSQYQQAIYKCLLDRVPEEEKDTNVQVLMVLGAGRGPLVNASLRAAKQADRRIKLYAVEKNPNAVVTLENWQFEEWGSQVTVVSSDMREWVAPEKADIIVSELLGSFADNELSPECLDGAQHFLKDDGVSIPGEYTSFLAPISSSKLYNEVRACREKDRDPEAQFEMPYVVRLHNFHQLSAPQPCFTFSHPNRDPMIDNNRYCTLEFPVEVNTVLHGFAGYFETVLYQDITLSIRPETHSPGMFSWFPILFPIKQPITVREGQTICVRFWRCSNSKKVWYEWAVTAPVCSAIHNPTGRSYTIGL
- Sequence (Q9BQA1 whole entry partner): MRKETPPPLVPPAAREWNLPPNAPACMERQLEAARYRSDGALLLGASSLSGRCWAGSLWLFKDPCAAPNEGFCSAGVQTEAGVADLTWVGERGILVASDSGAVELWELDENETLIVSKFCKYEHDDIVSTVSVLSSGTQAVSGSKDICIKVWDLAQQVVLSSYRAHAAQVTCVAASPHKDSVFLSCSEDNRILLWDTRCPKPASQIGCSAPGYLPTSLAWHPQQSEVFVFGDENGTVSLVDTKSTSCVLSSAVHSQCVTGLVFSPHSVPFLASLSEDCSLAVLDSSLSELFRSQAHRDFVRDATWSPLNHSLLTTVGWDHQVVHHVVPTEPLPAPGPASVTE
- Procedure Text: PRMT5 biochemical assay (3H-SAM methylation of H4(1-21) peptide, filter plate scintillation)
- Measurement Context: 10 nM PRMT5/MEP50 complex, 200 nM H4(1-21) peptide, 1 uM SAM, 25 minute incubation at room temperature
Decision: IC50 beneath 0.1 µM gives criterion met; IC50 meeting or exceeding 0.1 µM gives criterion not met.

Cc1ncnc2c1ccn2[C@@H]1C[C@H]([C@@H](O)c2ccc(Cl)cc2CN)[C@@H](O)[C@H]1O    criterion not met
Cc1cc(F)ccc1O[C@H]1C[C@@H](n2ccc3c(C)ncnc32)[C@H](O)[C@@H]1O    criterion not met
Cc1ncnc2c1ccn2[C@@H]1C[C@H](Oc2cccc3c2CNC(C)C3)[C@@H](O)[C@H]1O (single isomer, unassigned) [Example 185]    criterion met
Nc1ncnc2c1c(Br)cn2[C@@H]1C[C@H](Oc2ccc(F)c3c2CNCC3)[C@@H](O)[C@H]1O    criterion met
Cc1nc(N)nc(N(C)[C@@H]2C[C@H]([C@H](O)c3ccc(F)c(F)c3)[C@@H](O)[C@H]2O)n1    criterion met

Please let me know if N#Cc1cccc2c(N[C@@H]3C[C@H](C(O)c4ccc(F)c(F)c4)[C@@H](O)[C@H]3O)ncnc12 (single isomer, unassigned) [Example 30] shows IC50 below 0.1 µM.
criterion not met

Please let me know if Nc1ncnc2c1c(F)cn2[C@@H]1C[C@H]([C@@H](O)c2ccc(F)cc2)[C@@H](O)[C@H]1O shows IC50 below 0.1 µM.
criterion not met
